Would you kindly list cytotoxicity at 70.5 h for each of these compounds?
experimental details: Human HepG2 cell viability assay in 384 well format
Format: toxicity, cell-based
Set-up: dose 125 nL, time 70.5 hour; concentration not given beside the values
condition info: HepG2 cells, read-out: Inhibition
Give bare numbers, in %.

Below: 4 compounds and their reported cytotoxicity at 70.5 h.
# compound, cytotoxicity at 70.5 h, %
data = [
    ("COc1ccc(Cl)cc1C(=O)N(C)Cc1cc(C)on1", -3.26),
    ("O=C(C1CCOC1)N1CCc2ncnc(NC3CCC3)c2CC1 (stereo unspecified)", -2.47),
    ("CC(C)n1c(=O)nc2n1C(=O)N(c1ccccc1)C2", -5.73),
    ("Cc1ncc(CN2Cc3ccccc3O[C@]3(CC[C@H](CO)CC3)C2)cn1", -2.89),
]

Here are 5 compounds. What values of cytotoxicity at 70.5 h were reported for them?
1. CC(C)N(C)CC(=O)NCC(Cc1ccc(F)cc1)C(N)=O (stereo unspecified)
2. O=S(=O)(Nc1cnc(N2CCCC2)nc1)c1ccc(C(F)(F)F)cc1
3. Cc1nc(CN2CCCC(c3nccs3)C2)cs1 (stereo unspecified)
4. CC(C)(C)c1cc(=O)[nH]c(C2(N)CCCC2)n1
5. CCOc1ncccc1NC(=O)N1CCCCCC1

1.22
31.4
-0.693
14.1
-13.8

----------
Would you kindly list cytotoxicity at 70.5 h for each of these compounds?
experimental details: Human HepG2 cell viability assay in 384 well format
Format: toxicity, cell-based
Design: dose 125 nL, time 70.5 hour; concentration not given beside the values
condition info: HepG2 cells, read-out: Inhibition
Give bare numbers, in %.

# chemical string, measured endpoint, unit of measure, reported value
records = [
    ("CC(=O)N1CCCN(C(=O)CCc2c(C)noc2C)CC1", "cytotoxicity at 70.5 h", "%", -16.4),
    ("O=C(c1nn(-c2ccccc2F)cc1O)N1CCCC1", "cytotoxicity at 70.5 h", "%", -2.52),
    ("CCc1cc(=O)[nH]c2nnc(SCC(=O)NC(C)C)n12", "cytotoxicity at 70.5 h", "%", 17.6),
]

Now take the following compound into account.
Entry CCNC(=O)CNC(=O)c1nc(C2CC2)n(-c2ccccc2Cl)n1 has what cytotoxicity at 70.5 h?
-2.36

----------
experimental details: Human HepG2 cell viability assay in 384 well format
Format: toxicity, cell-based
Parameters: dose 125 nL, time 70.5 hour; concentration not given beside the values
condition info: HepG2 cells, read-out: Inhibition
Would you kindly list cytotoxicity at 70.5 h for each of these compounds?
Give bare numbers, in %.

Below: 3 compounds and their reported cytotoxicity at 70.5 h.
# compound, reported value
rows = [
    ("Cc1ccc(S(=O)(=O)N2C[C@H](C3CC3)[C@@H](N)C2)cc1F", -3.15),
    ("CC(C)(NCC(=O)NC(=O)NC1CC1)c1ccc2c(c1)OCO2", -3.04),
    ("O=c1[nH]c2ccccc2cc1CN(Cc1ccccn1)CC1CCCO1 (centres undefined)", -4.2),
]

Entry Cn1cccc1C(=O)N1CCN(CC2CC2)c2ncccc2C1 has what cytotoxicity at 70.5 h?
2.74

----------
experimental details: Human HepG2 cell viability assay in 384 well format
Type: toxicity, cell-based
Parameters: dose 125 nL, time 70.5 hour; concentration not given beside the values
condition info: HepG2 cells, read-out: Inhibition
measured endpoint: cytotoxicity at 70.5 h (%)
Numbers only, in %.

# compound, cytotoxicity at 70.5 h, %
rows = [
    ("c1ccc(-c2cnc(CN(Cc3cccnc3)CC3CCCO3)o2)cc1 (centres undefined)", -7.3),
    ("CN(CCNC(=O)Nc1ccn(C)n1)Cc1ccc(F)cc1", -22.5),
    ("O=C(NCCC(=O)N1CCCc2ccccc21)c1c(F)cccc1F", -12.4),
    ("O=C(c1ccc(C2CCCN2C(=O)c2cscn2)s1)N1CCSCC1 (centres undefined)", -11.1),
    ("CCC(O)CN(C)Cc1nnc2ccccn12 (centres undefined)", 9.61),
    ("Cc1cc(C(=O)N(CCN(C)C)Cc2ccc(Cl)cc2)no1", -0.353),
    ("Cn1nnc2c1CCN(C(C(=O)N1CCCCC1)c1ccccc1)C2 (centres undefined)", -7.33),
    ("O=C(c1ccc[nH]1)N1CCN(Cc2ccncc2)c2ncccc2C1", -11.6),
    ("Cc1ccnc(C2(C)CCCN2S(=O)(=O)c2c(C)noc2C)n1 (centres undefined)", 1.94),
    ("CC(C)(C)C(=O)NCCC(=O)NC(C)(C)c1ccc2c(c1)OCO2", -3.54),
]

Here are 6 compounds. What values of cytotoxicity at 70.5 h were reported for them?
1. CS(=O)(=O)N1C[C@@H]2OCC(=O)N(CC3CCC3)[C@@H]2C1
2. CC(=O)c1cccc(NC(=O)N(CC(F)F)C2CC2)c1
3. CCC(C(=O)NC1(C(N)=O)CCCC1)n1cccn1 (centres undefined)
4. CC(C)(C)Cc1nnc(NCc2ccsc2)o1
5. COCCC(=O)N1CCn2c(COCC3CC3)cnc2C1C (centres undefined)
6. O=C(NCCc1ccncc1)c1cccc(S(=O)(=O)NC2CC2)c1

-6.88
19.6
-13.8
28.5
-0.0494
1.33

Here are 8 compounds. What values of cytotoxicity at 70.5 h were reported for them?
1. COc1ccc(CN(C)[C@@H]2CN(C(=O)c3cnn(C)c3)C[C@H]2O)cc1
2. COc1ccc(CN2CCC3(CC2)CCN(CC(C)C)C3=O)cc1
3. O=C(NCC1CCCN1Cc1ccccc1)NCC1(O)CCC1 (centres undefined)
4. Cc1nc(CN(C)C2CCN(CC(=O)NC3CCOCC3)C2)no1 (centres undefined)
5. COCC(=O)N1CCOC(c2ccc(N(C)C)cn2)C1 (centres undefined)
6. O=C(NCCNC(=O)C1CCN(CC(F)(F)F)CC1)c1ccoc1
7. CN(Cc1cn2c(n1)CN(c1ncc(F)cn1)CC2)Cc1ccco1
8. Cc1cc(C)c(CNC(=O)NCC(c2ccccc2)N(C)C)c(=O)[nH]1 (centres undefined)

1. -6.51
2. -10.6
3. 31.1
4. 4.94
5. 15.3
6. -4.81
7. -8.98
8. 7.25

----------
experimental details: Human HepG2 cell viability assay in 384 well format
Format: toxicity, cell-based
Design: dose 125 nL, time 70.5 hour; concentration not given beside the values
condition info: HepG2 cells, read-out: Inhibition
measured endpoint: cytotoxicity at 70.5 h (%)
Give bare numbers, in %.

Below: 8 molecules and their reported cytotoxicity at 70.5 h.
# molecule, reported value
rows = [
    ("COCCCNCc1cc(O)c2cc(C)cc(C)c2n1", -5.24),
    ("Cc1ccccc1CN(CCN(C)C)Cc1ccccc1C(=O)O", -7.13),
    ("Cc1ccc(S(=O)(=O)N2CCCC3(CCCN3S(C)(=O)=O)C2)cc1F (configuration not stated)", 0.261),
    ("COc1ccc(-c2cc3nc([C@H](C)NC(=O)C4CC4)nn3cn2)cc1", -0.493),
    ("COc1c(C)cnc(CN2CCOC(CNc3cccnn3)C2)c1C (configuration not stated)", 3.14),
    ("Cc1ncsc1CCC(=O)NC1CCN(c2ncccc2C#N)CC1", -13.1),
    ("CN1CCCN(CC(CC(=O)Nc2ccc(Cl)cc2)C(=O)O)CC1 (configuration not stated)", -6.04),
    ("COc1ccc(N2CCN(C[C@@H](C)CO)CC2=O)cc1", -4.04),
]

Here are 8 molecules. What values of cytotoxicity at 70.5 h were reported for them?
1. CCN1CCC(NN2CCN(C)CC2)CC1
2. COCc1nc2ncc3c(=O)n(-c4ccc(C(C)=O)cc4)ccc3n2n1
3. CCCC(C)C(=O)NCc1cn2cc(Br)ccc2n1 (configuration not stated)
4. Cn1c(-c2ccc(F)cc2)cn2cc(C(=O)N3CC[C@@H](O)C3)nc2c1=O
5. CC(=O)c1cc(CN2C[C@@H](CN3CCCC3)[C@@H](CO)C2)n(C)c1
6. O=C(NC[C@H]1OC[C@@H](NC2CCC(F)(F)CC2)[C@@H]1O)N1CCOCC1
7. CCc1nc(CCNC(=O)NC2CC(=O)N(C(C)(C)C)C2)cs1 (configuration not stated)
8. CCOC(=O)C1CCN(C(=O)Cn2ccc3cc(Br)ccc32)CC1

-4.47
-10.8
-7.73
-10.1
-5.11
-6.74
-5.26
24.7

Entry COCCN(CC1CCCN(C2Cc3ccccc3C2)C1)C(=O)CO (configuration not stated) has what cytotoxicity at 70.5 h?
-10

----------
Would you kindly list cytotoxicity at 70.5 h for each of these molecules?
experimental details: Human HepG2 cell viability assay in 384 well format
Format: toxicity, cell-based
Design: dose 125 nL, time 70.5 hour; concentration not given beside the values
condition info: HepG2 cells, read-out: Inhibition
Value and unit, in that order.

Below: 5 molecules and their reported cytotoxicity at 70.5 h.
# molecule, cytotoxicity at 70.5 h
rows = [
    ("COc1ccccc1OC1(C(=O)O)CCN(c2ncccc2F)CC1", "-7.34%"),
    ("O=C(NC1CCCC1)O[C@H]1COCCN(c2nc3ccccc3s2)C1", "3.92%"),
    ("CSCCCN1CCN(c2ccc(Cl)cn2)CC1", "-5.7%"),
    ("Cc1cnn(CC(C)NCc2ccc(OCc3nccn3C)cc2)c1 (stereo not drawn)", "-5.96%"),
    ("CCn1nc(C)c(C(=O)NCc2csc(C3CC3)n2)c1C", "1.51%"),
]

Here are 8 molecules. What values of cytotoxicity at 70.5 h were reported for them?
1. c1ncc(-c2ccc(C3CNCCO3)nc2)cn1 (stereo not drawn)
2. Cn1cc(I)c(C(=O)NCCCn2cc(Br)cn2)n1
3. CCOCCOC(C)C(=O)Nc1ccc2c(ccn2CC)c1 (stereo not drawn)
4. CNc1cncc(C2CCN(S(C)(=O)=O)CC2)n1
5. O=C1CCOCCN1Cc1ccc(Cl)c(F)c1
6. CCc1ncc2c(n1)CN(c1nnc(C)c(C)c1C#N)CC2
7. CCn1nc(CNC(=O)C2CC(=O)N(C3CCCC3)C2)c2ccccc21 (stereo not drawn)
8. O=c1[nH]c(CN2CCN(CC(F)(F)F)CC2)nc2ccccc12

1: -3.27%; 2: 0.223%; 3: -6.19%; 4: -2.96%; 5: 23.1%; 6: 5.31%; 7: 13.8%; 8: -13.3%
